Molecular target: Sushi domains (SD1/2) protein
Experiment: Fluorescence polarization (FP) competition assay with AJAP-1probe, calculated Ki
Assay type: binding
Details: Table 4, truncation and elongation scans of APP epitope; read-out: Ki (nM) mean ± SEM
Residues, ends and D or L forms follow the SMILES beside them.
OBSERVABLE: Ki (nM)
Dear colleague, please return just the value in nM, with no unit written.

Reference set (2 entries):
CC(=O)N[C@@H](CC(=O)O)C(=O)N[C@@H](CC(=O)O)C(=O)N[C@@H](CO)C(=O)N[C@@H](CC(=O)O)C(=O)N[C@H](C(=O)N[C@@H](Cc1c[nH]c2ccccc12)C(=O)N[C@@H](Cc1c[nH]c2ccccc12)C(=O)NCC(=O)NCC(=O)N[C@@H](C)C(=O)N[C@@H](CC(=O)O)C(=O)N[C@H](C(=O)N[C@@H](CC(=O)O)C(=O)N[C@@H](Cc1ccc(O)cc1)C(=O)N[C@@H](C)C(=O)N[C@@H](CC(=O)O)C(N)=O)[C@@H](C)O)C(C)C (Ac-DDSDVWWGGADTDYAD-NH2): 517
CC(=O)N[C@@H](CCC(=O)O)C(=O)N[C@@H](CCC(=O)O)C(=O)N[C@@H](CC(=O)O)C(=O)N[C@@H](CC(=O)O)C(=O)N[C@@H](CO)C(=O)N[C@@H](CC(=O)O)C(=O)N[C@H](C(=O)N[C@@H](Cc1c[nH]c2ccccc12)C(=O)N[C@@H](Cc1c[nH]c2ccccc12)C(N)=O)C(C)C (Ac-EEDDSDVWW-NH2): 1790

Would you kindly look at the next entry?
Query: # query: Ki of entry CC(=O)N[C@@H](CCC(=O)O)C(=O)N[C@@H](CCC(=O)O)C(=O)N[C@@H](CC(=O)O)C(=O)N[C@@H](CC(=O)O)C(=O)N[C@@H](CO)C(=O)N[C@@H](CC(=O)O)C(=O)N[C@H](C(=O)N[C@@H](Cc1c[nH]c2ccccc12)C(=O)N[C@@H](Cc1c[nH]c2ccccc12)C(=O)NCC(=O)NCC(N)=O)C(C)C (Ac-EEDDSDVWWGG-NH2)
Reply: 1750
